Test system: S. aureus Met-R multiresistant strains
Assay: MIC determination (NCCLS broth microdilution), methicillin-resistant multiresistant S. aureus strains
Format: cell-based, Staphylococcus aureus
Settings: Staphylococcus aureus, Strain 16; antibiotype Oxa, Cip, Clin, Ery; read-out: MIC
Method: The MICs of thiamphenicol and of other antibiotics was obtained by using the method proposed by NCCLS (National Committee for Clinical Laboratory Standards, 1999). Various antibiotic concentrations were added to bacteria in exponental growth (final inoculum 5×10^5 […]); dilution in Mb (cation-supplemented Mueller-Hinton broth) and distribution on a microplate by using an automatic diluting machine Biomek 1000 (Beckman, USA). MHb charged with 2% NaCl was used to test the methicillin activity. […]
For each entry below, report its MIC value.
Numbers only, in µg/mL.

CS(=O)(=O)c1ccc([C@@H](O)[C@@H](CO)NC(=O)C(Cl)Cl)cc1 ... 8

Could you now consider this next compound?
Entry O=C(N[C@H](CO)[C@H](O)c1ccc([N+](=O)[O-])cc1)C(Cl)Cl : MIC on S. aureus Met-R multiresistant strains = 8

----------
test system: S. aureus Met-R multiresistant strains; assay: MIC determination (NCCLS broth microdilution), methicillin-resistant multiresistant S. aureus strains; type: cell-based, Staphylococcus aureus; conditions: Staphylococcus aureus, Strain 28; antibiotype Oxa, Cip, Clin, Ery, Gm; read-out: MIC
OUTCOME_MEASURE: MIC

Here's what some known entries look like.
CCC[C@@H]1C[C@@H](C(=O)N[C@@H]([C@H]2O[C@H](SC)[C@H](O)[C@@H](O)[C@H]2O)[C@H](C)Cl)N(C)C1 [Clindamycin, clindamycin] ... > 64 µg/mL
O=C(N[C@H](CO)[C@H](O)c1ccc([N+](=O)[O-])cc1)C(Cl)Cl [Cloramphenicol, cloramphenicol] ... 64 µg/mL
CS(=O)(=O)c1ccc([C@@H](O)[C@@H](CO)NC(=O)C(Cl)Cl)cc1 [Thiamphenicol, thiamphenicol] ... > 64 µg/mL
CC[C@H]1OC(=O)[C@H](C)[C@@H](O[C@H]2C[C@@](C)(OC)[C@@H](O)[C@H](C)O2)[C@H](C)[C@@H](O[C@@H]2O[C@H](C)C[C@H](N(C)C)[C@H]2O)[C@](C)(O)C[C@@H](C)C(=O)[C@H](C)[C@@H](O)[C@]1(C)O [Erythromycin, erythromycin] ... > 64 µg/mL

Could you now consider this next compound?
Measured MIC, COc1cccc(OC)c1C(=O)N[C@@H]1C(=O)N2[C@@H]1SC(C)(C)[C@@H]2C(=O)O [Meth, methicilline] : > 64 µg/mL

----------
system: S. aureus Met-R multiresistant strains; assay: MIC determination (NCCLS broth microdilution), methicillin-resistant multiresistant S. aureus strains; assay type: cell-based, Staphylococcus aureus; settings: Staphylococcus aureus, Strain 10; antibiotype Oxa, Cip, Clin, Ery, Gm; read-out: MIC
OUTCOME_MEASURE: MIC (µg/mL)
Answers are plain numbers, in µg/mL.

Here's what some known entries look like.
O=C(N[C@H](CO)[C@H](O)c1ccc([N+](=O)[O-])cc1)C(Cl)Cl [Cloramphenicol, cloramphenicol] ... 4
CS(=O)(=O)c1ccc([C@@H](O)[C@@H](CO)NC(=O)C(Cl)Cl)cc1 [Thiamphenicol, thiamphenicol] ... 4

Could you now consider this next compound?
Measured MIC, CCC[C@@H]1C[C@@H](C(=O)N[C@@H]([C@H]2O[C@H](SC)[C@H](O)[C@@H](O)[C@H]2O)[C@H](C)Cl)N(C)C1 [Clindamycin, clindamycin] : 64
